molecular target: SARS-CoV-2 full length spike (S) protein, wild type, expressed on the surface of CHO cells (SARS-CoV-2, UniProt P0DTC2 14-1273)
QUANTITY: median fluorescence intensity, fold over isotype control (fold over isotype)
The answer is to be given in fold over isotype; state only the numeric part.

Below are worked cases with known answers.
>  <BINDER>
antibody 547 (antibody, V domains shown) VH: QVHLVESGGGVVQPGRSLRLSCAASGFALSSYAMHWVRQPPGKGLEWVALISYDGSVKKYADSVKGRITVSGDNSRNTLHLQINSLRADDTAVYYCVRGGVSGPNSFDLWGHGTMVTVSS VL: DVVLTQSPLSLPVTLGQPASISCRSSQSLEYSVGNTYVNWFQQRPGQSPRRLIYKVSNRDSGVPDRFSGSGSGTDFTLQISRVEADDVGIYYCMQGTHWPVTFGQGTKVEIK

>  <EXPERIMENTAL_VALUE>
10.6

$$$$
>  <BINDER>
antibody 556 (antibody, V domains shown) VH: QVQLVESGGGVVQPGRSLRLSCAASGFTFSSYAMHWVRQAPGKGLEWVAVISYDGSDKYYADSVKGRVTISRDNSKNTLYLQMNSLRVEDTAVFYCAKDDCSGGVCFPDYWGQGTLVTVSS VL: QSALTQPASVSGSPGQSITISCTGTSSDVGGYNYVSWYQQHPGKAPKLMIYEVSIRPSGVSNRFSGSKSGNTASLTISGLQAEDEAAYYCSSYTSSSTLVFGGGTKLTVL

>  <EXPERIMENTAL_VALUE>
7.59

$$$$
>  <BINDER>
antibody 571 (antibody, V domains shown) VH: EVQLVESGGGLVQPGGSLRLSCAASGFTFSTYWMTWVRQAPGKGLEWVANIKHDGSGKYHVDSVKGRFTISRDNAKNSLYLQMNSLRAEDTAVYYCTRDEGGWYDYWGQGTLVTVSS VL: QSALTQPASVSGSPGQSITISCTGTSSDVGSYNPVSWYQQHPGKAPKVMIYEGSKRPSGVSNRFSGSKSGNTASLTISGLQAEDEADYYCCSYARSSTFVVFGGGTKLTVL

>  <EXPERIMENTAL_VALUE>
8.3

$$$$

Okay, now this binder:
response.value for antibody 569 (antibody, V domains shown) VH: QVQLVESGGGVVQPGRSLRLSCAASGFTFSSYAMHWVRQAPGKGLEWVAVISYDGSNKYYADSVKGRFTISRDNSKNTLYLQMNSLRAEDTAVYYCARASSGGYQGPFDPWGQGTLVTVSS VL: EIVLTQSPATLSLSPGERATLSCRASQSVSSYLAWYQQKPGQAPRLLIYDASNRATGIPARFSGSGSGTDFTLTISSLEPEDFAVYYCQQRSSPFGPGTKVDIK (field: median fluorescence intensity, fold over isotype control) = 8.78

// data source = patent US20210292393A1
